System under test: Histamine H3 receptor (Cavia porcellus, UniProt Q9JI35)
Sequence (Q9JI35 whole entry): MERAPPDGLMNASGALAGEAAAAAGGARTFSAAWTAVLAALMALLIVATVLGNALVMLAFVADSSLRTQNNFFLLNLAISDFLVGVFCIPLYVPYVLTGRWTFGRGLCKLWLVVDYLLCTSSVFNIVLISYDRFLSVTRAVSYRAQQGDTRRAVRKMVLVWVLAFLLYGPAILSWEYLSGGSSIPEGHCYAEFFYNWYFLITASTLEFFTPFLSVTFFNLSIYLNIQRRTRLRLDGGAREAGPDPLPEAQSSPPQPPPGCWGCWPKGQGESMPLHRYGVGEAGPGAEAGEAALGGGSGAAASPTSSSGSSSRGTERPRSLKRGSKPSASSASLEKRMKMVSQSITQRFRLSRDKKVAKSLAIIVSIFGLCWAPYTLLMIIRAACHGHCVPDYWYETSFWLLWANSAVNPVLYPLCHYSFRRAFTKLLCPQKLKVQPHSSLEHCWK
Method description: Histamine H3 radioligand binding assay, guinea pig cortex ([3H]-R-α-methylhistamine)
Condition details: guinea pig cortex membranes, competition with 1 nM [3H]-R-α-methylhistamine; read-out: pKi (Guinea pig cortex) (converted)
Counter-ions that a name gives are not always drawn.

Compound	Measurement units	Ki
N=C(NCCCN1CCCC1)Nc1ccc(Cl)cc1 [Example 19]	nM	50.1
O=S(=O)(NCCN1CCCCC1)c1ccc2ccccc2c1 [Example 84]	nM	501
N=C(NCCCCCN1CCCC1)N1CCc2ccccc2C1 [Example 51, bis-hydrochloride]	nM	7.94
CN1CCC[C@H]1CCCNS(=O)(=O)c1ccc(Cl)cc1 [Example 98]	nM	794
CN1CCC[C@H]1CCCN(CC(=O)OCc1ccccc1)S(=O)(=O)NCc1ccc(Cl)cc1 [Example 130]	nM	5010
CN1CCC[C@H]1CCCNS(=O)(=O)NCc1ccc(Cl)cc1 [Example 107]	nM	100
N=C(NCCCCN1CCCC1)NCCC12CC3CC(CC(C3)C1)C2 [Example 35, bis-hydrochloride]	nM	7.94
CN1CCC[C@H]1CCCN(CCCN1C(=O)c2ccccc2C1=O)S(=O)(=O)NCc1ccc(Cl)cc1 [Example 125]	nM	316
N=C(N)N(CCCCCCN1CCCC1)Cc1ccc(Br)cc1 [Example 74, bis-hydrochloride]	nM	7.94
